target: β-secretase(BACE) (Homo sapiens)
Construct: purchased Panvera
measurement_protocol: BACE FS1% Inhibition Assay
Format: biochemical
details: 1 μM test compound; FS1 substrate; read-out: % Inhibition (FS) 1 μM
Assign inhibition at 1 µM to each entry below.
Answer with the number, then the unit.

Per the records, this molecule ( CN(C(=O)CCC(C1CCC(O)CC1)N1Cc2cc(Oc3ccccc3)ccc2N=C1N)C1CCCCC1 (stereo not shown) [Compound 632] ) has inhibition at 1 µM equal to 118%

Per the records, this molecule ( Cc1cccc(-c2ccc3c(c2)CN(Cc2cccc(C(=O)N(C)C4CCCCC4)c2)C(N)=N3)c1 [Compound 176] ) has inhibition at 1 µM equal to 97%

Per the records, this molecule ( CCOc1ccccc1-c1ccc2c(c1)CN(Cc1cccc(C(=O)N(C)C3CCCCC3)c1)C(N)=N2 [Compound 329] ) has inhibition at 1 µM equal to 109%

Per the records, this molecule ( COc1ccccc1-c1ccc2c(c1)CN(C(CCC(=O)N(C)C1CCCCC1)C1CCCCC1)C(N)=N2 (single isomer, unassigned) [Compound 530] ) has inhibition at 1 µM equal to 80%

* * *

target: β-secretase(BACE) (Homo sapiens, UniProt P56817)
Construct: purchased Panvera
Sequence (P56817 46-501): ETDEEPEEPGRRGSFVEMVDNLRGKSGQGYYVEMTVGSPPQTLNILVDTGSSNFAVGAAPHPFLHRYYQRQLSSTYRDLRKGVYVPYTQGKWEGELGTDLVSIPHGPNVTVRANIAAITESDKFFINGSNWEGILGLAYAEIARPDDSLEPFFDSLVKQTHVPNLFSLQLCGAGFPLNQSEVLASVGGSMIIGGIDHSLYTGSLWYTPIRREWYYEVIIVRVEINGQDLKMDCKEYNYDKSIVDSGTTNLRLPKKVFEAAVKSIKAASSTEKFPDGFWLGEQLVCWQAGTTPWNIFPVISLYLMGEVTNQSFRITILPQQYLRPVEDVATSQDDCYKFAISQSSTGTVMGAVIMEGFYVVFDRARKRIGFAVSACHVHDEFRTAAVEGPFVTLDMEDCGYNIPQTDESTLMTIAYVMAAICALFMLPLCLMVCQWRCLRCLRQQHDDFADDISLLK
measurement_protocol: BACE FS1% Inhibition Assay
Format: biochemical
details: 0.3 μM test compound; FS1 substrate
assay_metric: % Inhibition (FS) (%)
Record the value in %, omitting the unit from your answer.

Per the records, this compound ( `NC1=Nc2ccc(-c3ccccc3F)cc2CN1CCNC(=O)CCC(F)(F)F` ) has % Inhibition (FS) equal to 42

Per the records, this compound ( CN(C(=O)CCC(C1CCCCC1)N1Cc2cc(Oc3ccccc3)ccc2N=C1N)C1(C(=O)O)CCCCC1 (stereo not shown) ) has % Inhibition (FS) equal to −48

Per the records, this compound ( CC(CC(=O)NCCN1Cc2cc(-c3ccccc3F)ccc2N=C1N)C(F)(F)F (stereo not shown) ) has % Inhibition (FS) equal to 67

Per the records, this compound ( `CN(CCc1ccccc1)C(=O)CC[C@@H](C1CCCCC1)N1Cc2cc(-c3ccccc3F)ccc2N=C1N` ) has % Inhibition (FS) equal to 46

Per the records, this compound ( Cc1ccccc1-c1ccc2c(c1)CN(CCNC(=O)CC(C)C(F)(F)F)C(N)=N2 (stereo not shown) ) has % Inhibition (FS) equal to 78

Per the records, this compound ( CCCCC(CC)C(=O)NCCN1Cc2cc(-c3ccccc3C)ccc2N=C1N (stereo not shown) ) has % Inhibition (FS) equal to 66

Per the records, this compound ( `CC(C)N1CCC(N(C)C(=O)CC[C@@H](C2CCCCC2)N2Cc3cc(Oc4ccccc4)ccc3N=C2N)CC1` ) has % Inhibition (FS) equal to 43

Per the records, this compound ( `CCCC(=O)NCCN1Cc2cc(-c3ccc4ccccc4c3)ccc2N=C1N` ) has % Inhibition (FS) equal to 37

Per the records, this compound ( COC(=O)C(COCc1ccccc1)N(C)C(=O)CCC(C1CCCCC1)N1Cc2cc(Oc3ccccc3)ccc2N=C1N (stereo not shown) ) has % Inhibition (FS) equal to 69

Per the records, this compound ( CCCCC(CC)C(=O)NCCN1Cc2cc(-c3cnc4ccccc4c3)ccc2N=C1N (stereo not shown) ) has % Inhibition (FS) equal to 33

Per the records, this compound ( `COC(=O)[C@H]1CC[C@H](NC(=O)CC[C@@H](C2CCOCC2)N2Cc3cc(Oc4ccccc4)ccc3N=C2N)CC1` ) has % Inhibition (FS) equal to 41

Per the records, this compound ( `CN(C(=O)CC[C@@H](C1CCCCC1)N1Cc2ccc(Oc3ccccc3)cc2N=C1N)C1CCCCC1` ) has % Inhibition (FS) equal to 8

Per the records, this compound ( `CN(CCCCC(=O)O)C(=O)CC[C@@H](C1CCCCC1)N1Cc2cc(Oc3ccccc3)ccc2N=C1N` ) has % Inhibition (FS) equal to 45

Per the records, this compound ( `CC(C)(C)C(=O)NCCN1Cc2cc(-c3cnc4ccccc4c3)ccc2N=C1N` ) has % Inhibition (FS) equal to 36

Per the records, this compound ( CC(CC(=O)NCCN1Cc2cc(-c3ccccc3Cl)ccc2N=C1N)C(F)(F)F (stereo not shown) ) has % Inhibition (FS) equal to 64

Per the records, this compound ( CC(CC(=O)NCCN1Cc2cc(-c3ccccc3)ccc2N=C1N)C(F)(F)F (stereo not shown) ) has % Inhibition (FS) equal to 50

Per the records, this compound ( `CN(Cc1csc(-c2ccccc2)n1)C(=O)CC[C@@H](C1CCCCC1)N1Cc2cc(-c3ccccc3F)ccc2N=C1N` ) has % Inhibition (FS) equal to 35

Values were extracted from patent US8383637B2.
